test system: Plasmodium berghei; experiment: Luciferase/luciferin-expressing antifolate-resistant parasites were used to infect a culture of HepG2 cells that were pre-incubated with compounds. Infected hepatocytes emit light due to the luciferase reaction. Assay results are presented as the percent inhibition of light emission compared to control. […]; format: functional; details: sporozoite, FFLUC_HILL_SLOPE 2.05, FFLUC_R_SQUARED 0.721, HEPG2TOX_HILL_SLOPE 15.4, HEPG2TOX_R_SQUARED 0.582, PBLUC_HILL_SLOPE 17.3, PBLUC_R_SQUARED 0.758, read-out: LUCIFERASE INFECTION ASSAY - IC50
reported_property: IC50 (µM)
Answer with a number only, understood to be in µM.

Form: Entry = O=C(NC1CCCCC1)c1ccccc1-n1ncc(Cl)c(Cl)c1=O | System = Plasmodium berghei | IC50 = ____ 3.34
